Assign Ki to each entry below.
Biological target: human progesterone receptor-A [PRA] isoform (Homo sapiens, UniProt P06401)
Construct: purchased Ligand Pharmaceuticals (San Diego, Calif.); host or cells: insect SF21 cells (baculovirus)
Sequence (P06401 1-769 isoform P06401-2): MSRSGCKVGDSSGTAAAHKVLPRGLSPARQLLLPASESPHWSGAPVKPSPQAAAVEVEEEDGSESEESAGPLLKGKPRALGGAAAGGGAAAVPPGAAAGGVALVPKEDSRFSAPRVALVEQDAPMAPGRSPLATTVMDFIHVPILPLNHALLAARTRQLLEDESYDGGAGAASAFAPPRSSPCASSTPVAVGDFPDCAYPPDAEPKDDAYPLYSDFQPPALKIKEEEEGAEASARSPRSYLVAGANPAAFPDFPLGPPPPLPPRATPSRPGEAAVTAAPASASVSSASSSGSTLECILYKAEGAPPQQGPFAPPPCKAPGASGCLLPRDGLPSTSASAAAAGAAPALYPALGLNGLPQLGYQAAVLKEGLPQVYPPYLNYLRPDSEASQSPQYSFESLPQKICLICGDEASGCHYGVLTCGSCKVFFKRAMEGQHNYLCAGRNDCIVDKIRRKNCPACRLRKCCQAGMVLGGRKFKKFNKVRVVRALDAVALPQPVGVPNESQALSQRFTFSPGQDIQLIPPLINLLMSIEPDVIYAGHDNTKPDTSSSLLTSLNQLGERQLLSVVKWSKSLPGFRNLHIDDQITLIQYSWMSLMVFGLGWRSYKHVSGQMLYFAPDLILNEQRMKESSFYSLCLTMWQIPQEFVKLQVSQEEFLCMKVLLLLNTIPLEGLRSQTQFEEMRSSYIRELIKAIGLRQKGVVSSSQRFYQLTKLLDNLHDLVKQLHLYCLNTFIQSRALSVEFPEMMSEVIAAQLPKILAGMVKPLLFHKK
Assay: Radioligand binding with human progesterone receptor cytosol ([3H]-progesterone)
Details: [3H]Prog competition, 4° C. overnight, Cheng-Prusoff, read-out: Ki (nM) PR
Method: The procedure described in Anal. Biochem. 1970, 37, 244-252, hereby incorporated by reference, was used. […] After an overnight incubation, 50 μL of hydroxyapatite (25% weight/volume) slurry were added to each well and plates were incubated for 10 min at ° C. in a plate shaker. […] The amount of radioactivity was determined with a Packard TopCount plate reader. […]

compound="COc1cc2c(c3c1-c1ccccc1OC3c1ccccc1)C(C)=CC(C)(C)N2 (stereo not shown)" experimental_readout=Ki endpoint_result="10000 nM"
compound="COc1cc2c(c3c1-c1ccccc1OC3c1cc(Cl)cc(Cl)c1)C(C)=CC(C)(C)N2 (stereo not shown)" experimental_readout=Ki endpoint_result="10000 nM"
compound="C=CCC1Oc2ccccc2-c2c(OC)cc3c(c21)C(C)=CC(C)(C)N3 (stereo not shown)" experimental_readout=Ki endpoint_result="14000 nM"

Then this compound:
Query string: Notebook entry, human progesterone receptor-A [PRA] isoform (Homo sapiens, UniProt P06401) assay: Ki of C=C1CC(C)(C)Nc2cc(OC)c3c(c21)C(c1cc(Cl)cc(Cl)c1)Oc1ccccc1-3 (stereo not shown) = ?
Result string: 8600 nM
